Each entry below carries its recorded melting point.
Endpoint name: melting point

> print(dat)
                                   compound  endpoint.name  experimental.result
1             CCOc1ccc(S(C)(=O)=O)cc1C(=O)O  melting point        139 to 141 °C
2                             Cc1cc(N)ncc1I  melting point        198 to 200 °C
3     N#CCN1c2ccc([N+](=O)[O-])cc2CS1(=O)=O  melting point        200 to 202 °C
4               c1ccc2sc(=NCCN3CCOCC3)sc2c1  melting point          75 to 76 °C
5            COc1cc(Br)cc2c(N(C)C)cc(C)nc12  melting point        115 to 117 °C
6  NC(=O)[C@@H]1[C@H](Nc2c(Br)cnc3[nH]c(-c4ccc(CN5CCOCC5)cc4)nc23)[C@H]2C=C[C@@H]1C2  melting point        217 to 219 °C
7     COc1ccc(C(=O)N(C)c2ccc(C(=O)O)cc2)cc1  melting point        157 to 160 °C
8  CCCCCCCCCCCC(=O)OC(OC(=O)N1CCN(c2cc3c(cc2F)c(=O)c(C(=O)O)cn3CC)CC1)C(=O)OC(C)C (centres undefined)  melting point        106 to 109 °C
9  CN1CCN(c2cccc3c2CC[C@@H](NC(=O)c2ccc(N4CCOCC4)cc2)C3)CC1  melting point        127 to 128 °C

---

Each entry below carries its recorded melting point.
Endpoint name: melting point

> print(dat)
                                    molecule  experimental.result
 1  N#Cc1c(N2CCN(C(=O)c3cccs3)CC2)c2cc(F)cnc2[nH]c1=O               244 °C
 2  COc1cc(COc2ccc3nc(NC(=O)OCCN(C)C)cn3n2)cc(OC)c1OC        185 to 186 °C
 3            CS(=O)(=O)Nc1ccc(C=CC(=O)O)cc1               218 °C
 4  COc1ccc(-c2[nH]nc3c2C(=O)c2c(NC(=O)Cc4ccc(NC(=O)CN(C)C)cc4)cccc2-3)cc1             > 300 °C
 5                    c1ccc2c(c1)Oc1ccncc1O2        102 to 108 °C
 6  CCOC(=O)C1=C(COCCNC2=NCCS2)NC(C)=C(C(=O)OC)C1c1ccccc1Cl (stereo not drawn)        145 to 147 °C
 7  CCCCCCCCCCCCNC(=O)c1cc(Br)c(OCCNC(=O)OC)c(-c2cccc(C(F)(F)F)c2)c1      79.6 to 80.5 °C
 8   CCOC(=O)Cn1ncc(-c2ccc(F)cc2)c1-c1ccccc1          86 to 87 °C
 9  Cn1nc(N=Cc2ccccc2)nc1NCC(O)COc1cccc(CN2CCCCC2)c1 (stereo not drawn)          53 to 57 °C
10  CC(OC(=O)OC1CC(=O)NC1=O)OC(=O)C(C)C (stereo not drawn)          50 to 54 °C
11  O=c1c2ccc(OCc3ccccc3)cc2[nH]c2c([N+](=O)[O-])ccc(Cl)c12        198 to 202 °C
12  Cc1ccc(-c2cc(C(F)(F)F)n3ncc(C#N)c3n2)cc1               121 °C
13            C#CCn1cc(C=O)c([N+](=O)[O-])c1               120 °C
14  COc1cn(-c2ccc(C3CCOCC3)cc2F)nc(-c2ccnn2-c2ccccc2)c1=O        187 to 189 °C
15  Nc1ccsc1C(=O)NCC1CCN(CC2COc3ccccc3O2)CC1 (stereo not drawn)        144 to 146 °C
16       Cc1cccc(C)c1C(=O)Nc1cccc2c1CCN(C)C2        200 to 201 °C
17  COc1ccc(N2CCN(c3cc4c(cc3-c3cccnc3)OC(C)(C)C4)CC2)cc1        177 to 180 °C
18  COc1ccc(C(=O)Nc2ccc(F)c(F)c2)cc1NS(=O)(=O)c1cc(Cl)cc(Cl)c1        228 to 231 °C

Hello, the source for this data is a melting point compilation (Tetko et al.; mined from patent text by program, amines drawn as free bases though some values may be those of a salt), in case you need it.
